Entry source: paper PMC10876669

experimental-system: IP3K-KD (Homo sapiens, UniProt P23677)
Construct: human IP3K-KD A isoform (residues 187–461); GST (cleaved yes); made in house; host or cells: Escherichia coli BL21 star (DE3)
Sequence (P23677 187-461): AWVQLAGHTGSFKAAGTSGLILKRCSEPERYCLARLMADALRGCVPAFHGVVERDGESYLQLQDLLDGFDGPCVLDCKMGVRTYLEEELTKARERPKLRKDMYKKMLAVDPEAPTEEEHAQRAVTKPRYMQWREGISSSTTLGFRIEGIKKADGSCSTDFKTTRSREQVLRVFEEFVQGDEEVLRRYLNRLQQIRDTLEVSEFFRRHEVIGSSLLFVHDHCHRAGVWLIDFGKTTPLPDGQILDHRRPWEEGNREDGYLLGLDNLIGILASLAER
assay-name: HPLC analysis of IP3K-KD reaction mixtures (substrate test)
Assay type: biochemical
recorded-conditions: 150 nM IP3K-KD, 500 μM analogue, 1 mM ATP, 2 h at 30 °C, Fig. 7a
measured-property: Ability to act as IP3K substrate (in words)

- compound: "O=P(O)(O)O[C@@H]1O[C@H](CO)[C@@H](OP(=O)(O)O)[C@H](OP(=O)(O)O)[C@H]1O [6a–s, β-D-glucopyranosyl 1,3,4-trisphosphate]"
  reported-result: "are also substrates"
- compound: "O=P(O)(O)OC[C@@H]1O[C@H](CO)[C@@H](OP(=O)(O)O)[C@H](OP(=O)(O)O)[C@H]1O"
  reported-result: "are also substrates"
- compound: "O=P(O)(O)O[C@@H]1[C@@H](O)[C@H](CO)[C@@H](OP(=O)(O)O)[C@H](OP(=O)(O)O)[C@H]1O (racemic)"
  reported-result: "are also substrates"
